Tested on: Escherichia coli Nissle 1917
protocol notes: area under OmniLog respiration curve over 48 h (OmniLog units x h); higher = more growth / nutrient utilisation; extreme values may be limits of the assay
condition summary: nutrient role: sole nitrogen source (pyruvate carbon); incubation: 48 h, 37 °C
Entries and their area under OmniLog respiration curve
Hey, just send me the number, nothing else.

Some compounds with recorded area under OmniLog respiration curve:
>  <entry smiles>
O=C1NC(=O)C(=O)C(=O)N1

>  <recorded result>
402

$$$$
>  <entry smiles>
NCCc1ccccc1

>  <recorded result>
11.4

$$$$
>  <entry smiles>
CCN

>  <recorded result>
8.5

$$$$

Specify area under OmniLog respiration curve for NCCc1ccc(O)cc1 and stop. 35.9

// data source = the supplement of paper PMC9801561
